experiment: lysozyme-GFP induction in HOXA9-ER cells – HOXA9-ER marrow cells, GFP flow, set 1, SAR follow-up (AID 743181); conditions: HOXA9-ER marrow cells, lysozyme-GFP differentiation, flow; at 10 µM (top of the series)
Each entry below carries its recorded GFP+ cells, differentiation.

| Molecule | Units of measure | GFP+ cells, differentiation |
| --- | --- | --- |
| CC(NC(=O)CCNC(=O)c1ccc(Cl)cc1)c1ccc2c(c1)OCO2 (configuration not stated) | % | 0 |
| CC(c1ccccc1)N(C)C(=O)CCNC(=O)c1ccc(Cl)cc1 (configuration not stated) | % | 0 |
| Cc1cccc(C(=O)NCCC(=O)NC2CCCc3ccccc32)c1 (configuration not stated) | % | 1 |
| O=C(NC1CCc2ccccc21)C1CCCN(C(=O)c2ccc(Cl)cc2)C1 (configuration not stated) | % | 1 |
| O=C(O)c1ccccc1OCc1ccccc1Br | % | 1 |
| COc1ccccc1C(C)NC(=O)CCNC(=O)c1ccc(Cl)cc1 (configuration not stated) | % | 0 |
| O=C(CCCNC(=O)c1ccc(Cl)cc1)N[C@@H]1CCCc2ccccc21 | % | 2 |
